Assay: Induction of tubulin polymerization at 0.1 uM by DAPI fluorescence method relative to control
EXPERIMENTAL READOUT: Activity (%)

(A) CC(=O)O[C@@]12CO[C@@H]1C[C@H](OC(=O)C1CC1)[C@@]1(C)C(=O)[C@H](OC(=O)c3ccccc3)C3=C(C)[C@@H](OC(=O)[C@H](O)[C@@H](NC(=O)c4ccccc4)c4ccccc4)C[C@@](O)([C@@H](OC(=O)c4ccccc4)[C@H]21)C3(C)C
(B) CCC(=O)O[C@H]1C(=O)[C@]2(C)[C@@H](OC(=O)c3ccccc3)C[C@H]3OC[C@@]3(OC(C)=O)[C@H]2[C@H](OC(=O)c2ccccc2)[C@]2(O)C[C@H](OC(=O)[C@H](O)[C@@H](NC(=O)c3ccccc3)c3ccccc3)C(C)=C1C2(C)C
(C) CCC(=O)O[C@H]1C(=O)[C@@]2(C)[C@H]([C@H](OC(=O)c3ccccc3)[C@]3(O)C[C@H](OC(=O)[C@H](O)[C@@H](NC(=O)c4ccccc4)c4ccccc4)C(C)=C1C3(C)C)[C@]1(OC(C)=O)CO[C@@H]1C[C@@H]2O
Request: List the items above again, this time ordered by increasing Activity. In plain terms: list the labels in the order you were asked to.
Response: B, C, A
